Sourced from ChEMBL document CHEMBL1201862

test system: UO-31; experiment: NCI tumour cell line growth inhibition, 48 h
Active and inactive are the calls of the source. Rule as the data show it: active = GI50 up to about 1.1 µM and inactive = higher.
Lab note: assign the record to one of 1 = active, -1 = inactive

[ask] Give the logged outcome of this assay for the following compound: Cc1ccc(/N=C/C=C(\Nc2ccc(C)cc2)c2ccc3ccccc3c2)cc1
[reply] 1

[ask] So what was the verdict on Cn1c2cc(Cl)ccc2c2ccc3c(c21)C(=O)C=CC3=O in this test?
[reply] -1

[ask] Recorded test outcome, item CCOC1CCC2C(CCC(/C=C/c3ccc(O)c4ncccc34)N2C)C1 (stereo not given)
[reply] -1

[ask] What classification did N#CC1=C(N)OC2=C(CCCc3ccc([N+](=O)[O-])cc32)C1c1ccccc1 (stereo not given) end up with in this test?
[reply] -1

[ask] What did this assay record as the result for c1ccc([P+](CCCCCC[P+](c2ccccc2)(c2ccccc2)c2ccccc2)(c2ccccc2)c2ccccc2)cc1 ?
[reply] -1

###

tested on: NCI-H522; assay: NCI tumour cell line growth inhibition, 48 h
Active and inactive are the calls of the source. No stated cut-off is given here; in the data, active = GI50 up to about 1.1 µM and inactive = higher.
Outcomes you can answer with include only these: active, inactive

[ask] What outcome does the record of this test show for CC1CC(=O)NC2CC1C2(C)C (stereo not given) ?
[reply] inactive

[ask] Which result was noted for this molecule in the test: COc1ccc(OC)c(CNc2ccc(C(=O)O)cc2)c1
[reply] inactive

[ask] State the result this test recorded for Cc1ccc(C(N)=O)cc1/N=N/N(C)C .
[reply] inactive

[ask] Please let me know the test result on file for Nc1ccc2c(c1)C(=O)N(OS(=O)(=O)c1ccccc1)C2=O .
[reply] inactive

[ask] Which outcome did this test record for the molecule O=C1N[C@@H](COc2ccc(/C=N/c3ccc(CCc4ccc(/N=C/c5ccc(OC[C@@H]6COC(=O)N6)cc5)cc4)cc3)cc2)CO1 ?
[reply] inactive

[ask] Kindly provide the recorded test outcome for the following molecule: CC(O)C(O)C(N)CC=O (stereo not given)
[reply] inactive

[ask] Tell me the assay call for CN(Cc1ccccc1)C1(N(C)Cc2ccccc2)CC1 please.
[reply] inactive

[ask] Record request — test call for CC1NCCC(CC(=O)O)C1CC(=O)O (stereo not given)
[reply] inactive

[ask] Could you please tell me the result logged for O=C(CCl)NC(Cc1ccc(F)cc1)C(=O)O (stereo not given) in this assay?
[reply] inactive

[ask] State the result this test recorded for C/C(=N\NC(=S)N1CC2CCC(CC2)C1)c1nccs1 .
[reply] active

[ask] Status in this test for CCOC1CCC2C(CCC(/C=C/c3ccc(O)c4ncccc34)N2C)C1 (stereo not given) ?
[reply] inactive

[ask] Could you please tell me the result logged for COC(=O)CC1C=CC(C)(OC)OO1 (stereo not given) in this assay?
[reply] inactive

[ask] GET /call?item= CC1(C)CC(/C=C2/OC(=O)c3ccccc32)=C(C#N)C(=O)O1 returns the recorded outcome of this test.
[reply] inactive

[ask] Hi, do you know how O=c1[nH]c2ccccc2c2oc(-c3ccccc3)nc12 came out in this test?
[reply] inactive

[ask] Could you check what this test reported for CN(C)C(=S)/N=c1\ssc(=S)n1Cc1ccccc1 ?
[reply] active

[ask] # fetch the recorded call for Cc1ccn2c(CCc3nnc4cc(C)ccn34)nnc2c1 here
[reply] inactive

[ask] // outcome(item) with item = COc1cc(CNC(=O)CCCCCCCCCCSSCCCCCCCCCCC(=O)NCc2ccc(O)c(OC)c2)ccc1O
[reply] active

[ask] Look up the recorded call for O=C1c2cccnc2S(=O)(=O)N1c1ccc(Oc2ccccc2)cc1 in this test.
[reply] inactive

[ask] Tell me the assay call for N[C@@H](Cc1ccc2oc3cc(=O)c4ccccc4c-3nc2c1)C(=O)O please.
[reply] inactive

[ask] State the result this test recorded for CCCSc1ccc2[nH]c(N3C(=O)/C(=C/c4cc(OC)c(OC)c(OC)c4)N=C3c3ccccc3)cc2c1 .
[reply] inactive

[ask] Dear all, I need the recorded test outcome for O=C1CCCc2ccc3c(c21)CC1(Cc2cc4c(cc2C1)CCCC4)C3 , thank you.
[reply] inactive

[ask] Which outcome was entered for the molecule CO/C(N)=C(C#N)/N=C/c1ccccc1 in this test?
[reply] inactive

[ask] Status in this test for CC(C)(c1ccc(Oc2ccc(C#N)c(C#N)c2)cc1)c1ccc(Oc2ccc(C#N)c(C#N)c2)cc1 ?
[reply] inactive

[ask] So what was the verdict on CCOc1ccccc1/N=N/c1ccc2oc(=O)c(C(C)=O)cc2c1 in this test?
[reply] inactive

[ask] What did the test return for CC1=CP(=O)(OC(C)C)C=C(C)C1=C(Cl)Cl (stereo not given) ?
[reply] inactive

[ask] How did this test come out for O=[N+]([O-])c1ccc(-n2nc3ccc4nonc4c3n2)cc1 ?
[reply] inactive

[ask] What outcome does the record of this test show for CC(C)N(C(=O)C12CC3CC(CC(C3)C1)C2)C(C)C ?
[reply] inactive

[ask] Status in this test for COC12C=CC(CC1)c1c(O)ccc(O)c12 (stereo not given) ?
[reply] inactive

[ask] Look up the recorded call for CNc1nc(SC)nc2c1c(N)nn2C in this test.
[reply] inactive

[ask] Assay result, entry CC(=O)c1nc2ccccc2n1CC(=O)c1ccc([N+](=O)[O-])cc1 — outcome?
[reply] inactive

[ask] Dear colleague, could you share the recorded outcome for c1coc(C2=Nc3cccc4cccc(c34)N2)c1 when you have a moment?
[reply] inactive

[ask] Called result for O=C1c2ccccc2C(=O)N1[C@@H](Cc1ccccc1)C(=O)n1cccc1CO
[reply] inactive

[ask] Would you mind telling me which call this test gave CC1CC(C#N)=C2NCCN2C1=O (stereo not given) ?
[reply] inactive

[ask] Name the outcome recorded for O=C1CC2(CCNCC2)C(=O)N1N1CCCC1 in the assay.
[reply] inactive

[ask] Short answer needed: outcome of this test for Cc1cc(NCCCCCCCNc2cc(C)nc3cc([N+](=O)[O-])ccc23)c2ccc([N+](=O)[O-])cc2n1 ?
[reply] inactive

[ask] What did the test return for S=C(N/N=C(/c1ccccc1)c1ccccn1)N1CCCCC1 ?
[reply] active

[ask] Tell me the recorded outcome of this test for COc1c(C)c(C/C=C(\C)CCCCO)c(OC)c(OC)c1OC .
[reply] inactive

[ask] State the result this test recorded for COc1c(C)n(CCO)ccc1=O .
[reply] inactive

[ask] Outcome? CC(C)(C)c1cc(C(=O)/C=C/c2ccc(O)c(O)c2O)cc(C(C)(C)C)c1O
[reply] active

[ask] Kindly provide the recorded test outcome for the following molecule: CC(C)C1=CC(=O)C(C)(C2=NC(C)(C)CO2)c2ccccc21 (stereo not given)
[reply] inactive

###

system: A498; experiment: NCI tumour cell line growth inhibition, 48 h
The source made the active and inactive calls. Rule as the data show it: active = GI50 up to about 1.1 µM and inactive = higher.
Allowed answers: class 1 = active, class 0 = inactive

[ask] Recorded test outcome, item CC(C)(C)c1cc([Si](C)(C)C)c(C#N)c([Si](C)(C)C)c1
[reply] class 0

[ask] Assay result, entry Cc1c2ccnc(C(F)(F)F)c2cc2c1[nH]c1ccccc12 — outcome?
[reply] class 0

[ask] Please indicate how the test categorized Cc1ccc(/C=C2\CN(C)CC3C(c4ccc(C)cc4)=C(C#N)C(=O)NC23)cc1 (stereo not given) .
[reply] class 0

[ask] State the result this test recorded for Cn1cc(C(=O)/C(Cl)=C(\Cl)C(=O)O)c2ccccc21 .
[reply] class 0

[ask] Would you mind telling me which call this test gave [O-][Cl+3]([O-])([O-])[O-].c1ccc(-c2[o+]c(-c3ccccc3)c(-c3ccccc3)c(-c3ccccc3)c2-c2ccccc2)cc1 ?
[reply] class 0

[ask] Call for entry COc1cc(C2S/C(=C/c3ccccc3)C(=O)N2Cc2ccccc2)cc(OC)c1OC (stereo not given) :
[reply] class 0

[ask] Could you kindly confirm the outcome this assay logged for CCOC(=O)C1=CC(C)(C(=O)OCC)Nc2c(nc(N)[nH]c2=O)N1 (stereo not given) ?
[reply] class 0

[ask] Name the outcome recorded for O=c1[nH]nc(-c2ccccc2)n1Nc1ccccc1 in the assay.
[reply] class 0

[ask] Record lookup: outcome of this test for N#CNc1nc(C(=O)Nc2ccc(Cl)cc2)cc(-c2ccccc2)n1 ?
[reply] class 0

[ask] Identify the outcome logged in this assay for the compound shown: COc1ccc2nc3ccccc3c(NCCCCCCN(CCCl)CCCl)c2c1
[reply] class 1

[ask] Check the results log: what was the call for Cc1c(C#N)c2nnn(C)c(=O)n2c1-c1ccccc1 ?
[reply] class 0

[ask] Any idea what this test logged for O=C(CN1CCCCC1)CC(O)(C(F)(F)F)C(F)(F)F ?
[reply] class 0

[ask] How was C1CCCCC2(CCCCCCCCC3(CCC1)OCCO3)OCCO2 classified in this test?
[reply] class 0

[ask] For CC1=C(C)C2(C#N)C(=O)N3C(=NC(c4ccccc4)NC3c3ccccc3)C2(C#N)C(c2ccccc2)N1 (stereo not given) , what call appears in the results of this test?
[reply] class 0

[ask] Name the outcome recorded for CCCCCCCCCCCC(=O)OCCOCCOCCOCCOCCOCc1ccccc1 in the assay.
[reply] class 0

###

test system: CAKI-1; experiment: NCI tumour cell line growth inhibition, 48 h
Active and inactive are the calls of the source. Rule as the data show it: active = GI50 up to about 1.1 µM and inactive = higher.
Log the outcome using a class from yes for active, no for inactive

[ask] Test call, this compound: N#CCCN(CCC#N)c1ccc(/C=C2\N=C(c3cc([N+](=O)[O-])ccc3Cl)OC2=O)cc1
[reply] no

[ask] # outcome recorded in this test, key = C#C[C@]1(O)[C@@H](CO)O[C@@H](n2ccc(=O)[nH]c2=O)[C@@H]1O
[reply] yes

[ask] Look up the recorded call for N#CNc1nc(C(=O)Nc2ccc(Cl)cc2)cc(-c2ccccc2)n1 in this test.
[reply] no

[ask] Entry CC[C@@H]1CC[C@@H]2[C@H](CC[C@]3(C)[C@@H](O[N+](=O)[O-])CC[C@@H]23)[C@H]1C(C)=O : call = ?
[reply] no

[ask] Which outcome was assigned to CN(C)C(=S)/N=c1\ssc(=S)n1Cc1ccccc1 in this test?
[reply] yes

[ask] Assay outcome for O=C(O)/C(=C/C(=O)c1ccc(Cl)cc1)NNc1ccc([N+](=O)[O-])cc1[N+](=O)[O-] : what was it?
[reply] no

[ask] Hi team, can someone confirm the assay call for O=C1CCC2(c3ccccc3)OCC([C@@H](O)c3ccccc3)N12 (stereo not given in full) ?
[reply] no

[ask] Identify the outcome logged in this assay for the compound shown: COP(=O)(OC)C(N)CCSC (stereo not given)
[reply] no

[ask] Write down the call the test reported for this compound. Item: COc1c(C)c(C/C=C(\C)CCCCO)c(OC)c(OC)c1OC
[reply] yes

[ask] What did this assay record as the result for O=[N+]([O-])c1ccc(C2=Nn3c(nnc3-c3ccc(Cl)cc3)SC2)o1 ?
[reply] no

[ask] Identify the outcome logged in this assay for the compound shown: N#CCCN(c1ccc(/C=N/c2ccc(C(=O)O)cc2)cc1)S(=O)(=O)c1ccccc1
[reply] no

[ask] Just curious, what result did O=C1c2cc([N+](=O)[O-])ccc2-c2cccc(F)c21 get here?
[reply] no

[ask] What did this assay record as the result for C[Si]1(C)C(c2ccccc2)=CC2C(c3ccccc3)(c3ccccc3)OC21c1ccccc1 (stereo not given) ?
[reply] no

[ask] Which result was noted for this compound in the test: C/C=C/C=C/C=C/C=C/C(=O)O
[reply] no

[ask] What is the recorded call for this compound in the test? Cc1nnc2c3nnc(C)n3c3ccccc3n12
[reply] no

[ask] // outcome(item) with item = COc1cc(/C=C/C(=O)N[C@@H]2C(=O)N3[C@@H]2SC(C)(C)[C@@H]3C(=O)O)cc(OC)c1OC
[reply] no

[ask] Can you look up the reported call for COC(=O)NC1(NC(=O)OC)NC(=O)c2cc(OC)c(OC)c(OC)c2N1 for me?
[reply] no

[ask] Status in this test for O=c1[nH]c2ccccc2c2oc(-c3ccccc3)nc12 ?
[reply] no

[ask] Per the records of this test, what outcome belongs to CC(C)(C)OC(=O)NC(Cc1ccc(OCc2ccccc2)cn1)C(=O)N1CCCCC1 (stereo not given) ?
[reply] no

[ask] Returns: the outcome recorded for O=C1OC(CS(=O)(=O)c2ccccc2)CC1O (stereo not given) in this assay.
[reply] no
